Recorded values, source ChEMBL document CHEMBL3259675.

System: HCT-116
Assay: Antiproliferative activity against human HCT116 cells assessed as growth inhibition after 48 hrs by MTT assay
Type: functional, cell-based
Details: HCT-116, 48 h
Exercise: state measured pIC50 for each of the compounds provided.
Give bare numbers, as −log10 of the molar value.

Look up pIC50 for the entries below, preserving their order.
1. OCCCC[C@@H]1[C@H]2CCCN3CCC[C@H](CN1Cc1ccc(Cl)cc1)[C@@H]23
2. CC[C@@]1(O)C(=O)OCc2c1cc1n(c2=O)Cc2cc3c(CN(C)C)c(O)ccc3nc2-1
3. COC(=O)CCC[C@@H]1[C@H]2CCCN3CCC[C@H](CN1Cc1ccc(Cl)cc1)[C@@H]23

Result:
1: 4.97; 2: 5.36; 3: 5.34

====

Exercise: state measured inhibition at 10 µg/mL for each of the compounds provided.
Test system: HepG2
Assay: Antiproliferative activity against human HepG2 cells assessed as growth inhibition at 10 ug/ml after 48 hrs by MTT assay
Assay type: functional
Settings: HepG2, 48 h
Answers are plain numbers, in %.

According to the records, this compound CCCCN1C[C@H]2CCCN3CCC[C@@H]([C@H]23)[C@H]1CCCCO displays inhibition at 10 µg/mL of 19.7

According to the records, this compound OCCCC[C@@H]1[C@H]2CCCN3CCC[C@H](CN1Cc1ccncc1)[C@@H]23 displays inhibition at 10 µg/mL of 1.2

According to the records, this compound CCCN1C[C@H]2CCCN3CCC[C@@H]([C@H]23)[C@H]1CCCC(=O)O displays inhibition at 10 µg/mL of 25.3

According to the records, this compound CC(C)CN1C[C@H]2CCCN3CCC[C@@H]([C@H]23)[C@H]1CCCC(=O)O displays inhibition at 10 µg/mL of 10.7

According to the records, this compound COC(=O)CCC[C@@H]1[C@H]2CCCN3CCC[C@H](CN1CC(C)C)[C@@H]23 displays inhibition at 10 µg/mL of 26.8

According to the records, this compound O=C(O)CCC[C@@H]1[C@H]2CCCN3CCC[C@H](CN1Cc1cccc(Cl)c1)[C@@H]23 displays inhibition at 10 µg/mL of 22.8

Look up inhibition at 10 µg/mL for the entries below, preserving their order.
1. O=C(O)CCC[C@@H]1[C@H]2CCCN3CCC[C@H](CN1Cc1cccc(F)c1)[C@@H]23
2. OCCCC[C@@H]1[C@H]2CCCN3CCC[C@H](CN1Cc1ccccc1F)[C@@H]23

Result:
1: 25.2; 2: 30.9
